- Test system: SNB-19 CNS
- EXPERIMENT DESCRIPTION: NCI tumour cell line growth inhibition, 48 h
Record form. Attribute: TGI. Fill in for each entry.

Reference set, count: 2
COC(=O)CCC(NC(=S)N/N=C/c1ccco1)C(=O)OC (stereo unspecified)
> 100 µM
O=C1CC(S(=O)(=O)O)C=C1Nc1cccc(Cl)c1 (stereo unspecified)
> 100 µM

Required: TGI, one value per compound below.
1. COc1ccccc1Cc1nc(-c2ccccc2)nn(C2OC(COC(C)=O)C(OC(C)=O)C(OC(C)=O)C2OC(C)=O)c1=S (stereo unspecified)
2. COc1ccc(C)cc1Nc1nnc(-c2ccccc2N)s1
3. Cc1c2c(nn1C)CSCc1cc(n(C)n1)CSc1cc(c3ccccc3c1)OCCCc1c(C(=O)O)n(C)c3c-2c(Cl)ccc13
4. CCOC(=O)c1cnc2oc3ccc(O)cc3c2c1-c1ccccc1

# output
["> 52.7 µM", "> 100 µM", "13.9 µM", "> 100 µM"]

Source: PubChem BioAssay (NCI)
